Target: PIN1-CD (catalytic PIN1 domain, devoid of the PIN1 WW domain) (Homo sapiens, UniProt Q13526)
Sequence (Q13526 52-163 limits assumed): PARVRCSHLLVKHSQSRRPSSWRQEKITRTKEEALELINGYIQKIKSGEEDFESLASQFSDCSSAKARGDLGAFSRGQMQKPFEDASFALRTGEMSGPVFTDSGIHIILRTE
readout_kind: Kd

In: Any idea what its Kd is? The compound is CC(C)(C)C(=O)N[C@@H](COP(=O)(O)O)Cc1cccc(F)c1 [Example 25-30]
Out: < 1000 nM

In: Any idea what its Kd is? The compound is O=C(N[C@@H](COP(=O)(O)O)Cc1ccccc1)c1cnc2ccccc2n1 [Example 25-11]
Out: < 1000 nM

In: Any idea what its Kd is? The compound is O=C(O[C@@H](COP(=O)(O)O)Cc1ccccc1)c1ccc2ccccc2c1 [Example 49]
Out: < 1000 nM

In: Any idea what its Kd is? The compound is COc1c(C(=O)N[C@@H](COP(=O)(O)O)Cc2ccccc2)csc1Cl [Example 25-6]
Out: < 1000 nM

In: Any idea what its Kd is? The compound is O=C(N[C@@H](COP(=O)(O)O)Cc1ccccc1)c1ccc2ccccc2c1Br [Example 25-24]
Out: < 1000 nM

In: Any idea what its Kd is? The compound is COc1ccc2cc(C(=O)N[C@@H](COP(=O)(O)O)Cc3cccc(F)c3)ccc2c1 [Example 25-32]
Out: < 1000 nM

In: Any idea what its Kd is? The compound is O=C(O)[C@@H]1CCCCN1S(=O)(=O)N[C@@H](COP(=O)(O)O)Cc1ccccc1 [Example 5b2]
Out: < 10000 nM

In: Any idea what its Kd is? The compound is O=C(N[C@@H](COP(=O)(O)O)Cc1ccccc1)c1cc2ccccc2cc1O [Example 25-22]
Out: < 1000 nM

meta.source: patent US20050250742A1
